target under test: Glycogen phosphorylase, liver form (Rattus norvegicus, UniProt P09811)
measurement notes: Inhibition of glycogen phosphorylase in Wistar rat hepatocytes assessed as decrease in glucagon stimulated glucose release after 3 hrs by glucose oxidase method
parameter measured: IC50 (µM)
One number for each entry, in µM.

Hi there! I need IC50 for each item below, if you can.
1. OC[C@H]1O[C@@]2(CC(c3ccc4cc(O)ccc4c3)=NO2)[C@H](O)[C@@H](O)[C@@H]1O
2. CC(=O)OC[C@H]1O[C@@]2(CC(c3ccc4ccccc4c3)=NO2)[C@H](OC(C)=O)[C@@H](OC(C)=O)[C@@H]1OC(C)=O

1: 30.1; 2: 13.6

* * *

target under test: Glycogen phosphorylase, liver form (Rattus norvegicus)
Sequence (P09811 whole entry): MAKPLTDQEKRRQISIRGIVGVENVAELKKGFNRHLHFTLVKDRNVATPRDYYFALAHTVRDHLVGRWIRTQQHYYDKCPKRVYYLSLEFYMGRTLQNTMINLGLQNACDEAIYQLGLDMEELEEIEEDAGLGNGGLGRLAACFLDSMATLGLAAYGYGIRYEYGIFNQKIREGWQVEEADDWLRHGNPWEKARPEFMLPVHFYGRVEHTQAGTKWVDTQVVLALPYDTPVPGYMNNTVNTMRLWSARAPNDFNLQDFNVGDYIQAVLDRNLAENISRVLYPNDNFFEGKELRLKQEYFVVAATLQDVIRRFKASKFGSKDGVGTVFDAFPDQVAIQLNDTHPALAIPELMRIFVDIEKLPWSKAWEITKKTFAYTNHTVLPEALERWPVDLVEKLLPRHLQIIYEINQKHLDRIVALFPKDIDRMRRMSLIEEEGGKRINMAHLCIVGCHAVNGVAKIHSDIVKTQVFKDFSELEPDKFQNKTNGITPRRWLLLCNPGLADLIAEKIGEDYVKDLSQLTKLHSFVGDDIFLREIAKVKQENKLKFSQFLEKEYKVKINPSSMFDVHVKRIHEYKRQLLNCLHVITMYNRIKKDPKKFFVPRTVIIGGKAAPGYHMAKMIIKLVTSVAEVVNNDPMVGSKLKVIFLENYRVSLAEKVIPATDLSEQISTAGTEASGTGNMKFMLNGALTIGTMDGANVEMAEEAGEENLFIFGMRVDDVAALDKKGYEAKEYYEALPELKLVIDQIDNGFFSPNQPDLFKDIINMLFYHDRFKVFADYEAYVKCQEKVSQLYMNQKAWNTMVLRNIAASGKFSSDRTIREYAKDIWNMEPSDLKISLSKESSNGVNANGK
measurement notes: Inhibition of glycogen phosphorylase in Wistar rat hepatocytes assessed as decrease in glucagon stimulated glucose release after 3 hrs by glucose oxidase method
pIC50: −log10 of the molar value.
parameter measured: pIC50

Observe how each entry below is paired with its result.
- smiles repr: "OC[C@H]1O[C@@]2(CC(c3ccc4ccccc4c3)=NO2)[C@H](O)[C@@H](O)[C@@H]1O"
  target under test: "Glycogen phosphorylase, liver form (Rattus norvegicus)"
  pIC50: 4.44
- smiles repr: "OC[C@H]1O[C@@]2(CC(c3cc4ccccc4c4ccccc34)=NO2)[C@H](O)[C@@H](O)[C@@H]1O"
  target under test: "Glycogen phosphorylase, liver form (Rattus norvegicus)"
  pIC50: "< 4.00"
- smiles repr: "OC[C@H]1O[C@@]2(CC(c3ccc4c(c3)OCO4)=NO2)[C@H](O)[C@@H](O)[C@@H]1O"
  target under test: "Glycogen phosphorylase, liver form (Rattus norvegicus)"
  pIC50: "< 4.00"

Next:
Sample COc1cc(OC)cc(C2=NO[C@@]3(C2)O[C@H](CO)[C@@H](O)[C@H](O)[C@H]3O)c1 , system: Glycogen phosphorylase, liver form (Rattus norvegicus). Its pIC50 is < 4.00
